Cited source for all entries: the supplement of paper PMC10899765

# Tested on: MCF10A
# measurementDescription: percent viability (nuclei count relative to siNT); higher = more viable cells
# conditionNotes: 20 nM; 72 h
As shown below, each of these sequences has a reported percent viability value.

sequenceCode	assayedSystem	percent viability
UCCCUUGUCUCCUUUCCCUAG [hsa-miR-6780b-3p]	MCF10A	68.9%
AUGCAGGCCUGUGUACAGCACU [hsa-miR-6811-5p]	MCF10A	19.1%
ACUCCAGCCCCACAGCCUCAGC [hsa-miR-766-3p]	MCF10A	39%
UAAGGUGCAUCUAGUGCAGAUAG [hsa-miR-18a-5p]	MCF10A	49.1%
GUGCGUGGUGGCUCGAGGCGGGG [hsa-miR-6821-5p]	MCF10A	82.1%
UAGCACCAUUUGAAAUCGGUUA [hsa-miR-29c-3p]	MCF10A	138%

* * *

As shown below, each of these sequences has a reported percent viability value.
# Test system: MCF10A
# measurementDescription: percent viability (nuclei count relative to siNT); higher = more viable cells
# conditionNotes: 20 nM; 72 h

sequenceCode	readingUnit	percent viability
CCUGGAAACACUGAGGUUGUG [hsa-miR-875-3p]	%	155
UCGAGGAGCUCACAGUCU [hsa-miR-151b]	%	57.3
GAGGGCGGGUGGAGGAGGA [hsa-miR-3141]	%	20.1
CAUCCCUUGCAUGGUGGAGGG [hsa-miR-188-5p]	%	98.4
ACAGGCACGACUGGUUUGGCA [hsa-miR-6715b-5p]	%	14.8
UGACCUGGGACUCGGACAGCUG [hsa-miR-3661]	%	31.7
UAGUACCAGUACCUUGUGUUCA [hsa-miR-624-5p]	%	26.3
AAGUCCUGCUUCUGUUGCAG [hsa-miR-6838-3p]	%	56.4
AAGACGGGAGGAAAGAAGGGAG [hsa-miR-483-5p]	%	51.5

* * *

As shown below, each of these sequences has a reported percent viability value.
# Tested on: MCF10A
# measurementDescription: percent viability (nuclei count relative to siNT); higher = more viable cells
# conditionNotes: 20 nM; 72 h
propertyName: percent viability (%)

sequenceCode	value
AGGUUGACAUACGUUUCCC [hsa-miR-563]	70.5
UGACGCCCCUUCUGAUUCUGCCU [hsa-miR-6786-3p]	50.9
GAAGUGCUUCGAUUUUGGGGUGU [hsa-miR-373-3p]	65.4
UAGGUGGCAGAGGAGGGACUUCA [hsa-miR-6865-5p]	11.7
GCUUGUCGCUGCGGUGUUGCU [hsa-miR-3655]	65.9

* * *

# Tested on: MCF10A
# measurementDescription: one-nucleolus phenotype percent effect (relative to siNT 0% and siNOL11 100%); higher = more cells with one nucleolus (ribosome biogenesis inhibition)
# conditionNotes: 20 nM; 72 h
propertyName: one-nucleolus phenotype percent effect (%)

sequenceCode	assayedSystem	value
AUUGCCUAACAUGUGCCAGAA [hsa-miR-4774-3p]	MCF10A	13.7
GAGGGCAUGCGCACUUUGUCC [hsa-miR-4761-3p]	MCF10A	85.1
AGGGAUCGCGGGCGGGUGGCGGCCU [hsa-miR-638]	MCF10A	-7.05
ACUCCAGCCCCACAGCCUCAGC [hsa-miR-766-3p]	MCF10A	15.5
AUGGUUCCGUCAAGCACCAUGG [hsa-miR-218-1-3p]	MCF10A	11.8
GCUGGGCGAGGCUGGCA [hsa-miR-4486]	MCF10A	19.5
CUGGGGAGAUCCUCGAGGUUGG [hsa-miR-3150a-3p]	MCF10A	23.4
ACUGUAAACGCUUUCUGAUG [hsa-miR-3607-3p]	MCF10A	-18.5
AAUAGGCCACGGAUCUGGGCAA [hsa-miR-1295b-3p]	MCF10A	28.6
ACAAAAAAAAAAGCCCAACCCUUC [hsa-miR-3613-3p]	MCF10A	-10.2
UUGUUCUCAAACUGGCUGUCAGA [hsa-miR-7156-5p]	MCF10A	-16.5
UCCCUACCCCUCCACUCCCCA [hsa-miR-3162-3p]	MCF10A	-5.78
AUUGCCUCUGUUCUAACACAAG [hsa-miR-3152-5p]	MCF10A	-11.4
GUCACUGAUGUCUGUAGCUGAG [hsa-miR-4420]	MCF10A	-18.2
GGAGGAACCUUGGAGCUUCGGC [hsa-miR-3928]	MCF10A	-14.5
UCCCUCUCCCACCCCUUGCAG [hsa-miR-6892-3p]	MCF10A	-29
AGAGAUGAAGCGGGGGGGCG [hsa-miR-6088]	MCF10A	-6.8
ACGUUUGAAUGCUGUACAAGGC [hsa-miR-5707]	MCF10A	-26.7
UCGGCCUGGGGAGGAGGAAGGG [hsa-miR-7107-5p]	MCF10A	-28.2

* * *

As shown below, each of these sequences has a reported one-nucleolus phenotype percent effect value.
# Tested on: MCF10A
# measurementDescription: one-nucleolus phenotype percent effect (relative to siNT 0% and siNOL11 100%); higher = more cells with one nucleolus (ribosome biogenesis inhibition)
# conditionNotes: 20 nM; 72 h

sequenceCode	one-nucleolus phenotype percent effect / %
AAAACCGUCUAGUUACAGUUGU [hsa-miR-1537]	-11.1
GUGAAUUACCGAAGGGCCAUAA [hsa-miR-183-3p]	9.97
AGCUCCCUGAAUCCCUGUCCCAG [hsa-miR-7106-3p]	-19.5
UCCCCUCCACUUUCCUCCUAG [hsa-miR-6887-3p]	-0.315
UCCGGUUCUCAGGGCUCCACC [hsa-miR-671-3p]	54.3
AAAAGCACUUUUCUGUCUCCCAG [hsa-miR-6835-3p]	12.3
UCCUUCUGCUCCGUCCCCCAG [hsa-miR-1237-3p]	-0.823
UGGGGGUGUGGGGAGAGAGAG [hsa-miR-7110-5p]	6.58

* * *

As shown below, each of these sequences has a reported one-nucleolus phenotype percent effect value.
# Tested on: MCF10A
# measurementDescription: one-nucleolus phenotype percent effect (relative to siNT 0% and siNOL11 100%); higher = more cells with one nucleolus (ribosome biogenesis inhibition)
# conditionNotes: 20 nM; 72 h

sequenceCode	one-nucleolus phenotype percent effect, %
UCCUGUCCCUGUCUCCUACAG [hsa-miR-6748-3p]	-15.9
UGUUUCGGGGCUCAUGGCCUGUG [hsa-miR-5705]	-18.8
GAGGCUGAGCUGAGGAG [hsa-miR-4478]	35.1
CAACCUCGACGAUCUCCUCAGC [hsa-miR-3150a-5p]	-25.7
UCUCUCUGACUCCAUGGCA [hsa-miR-6817-3p]	1.99
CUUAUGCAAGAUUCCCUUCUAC [hsa-miR-491-3p]	73.6
UGAUUGUCUUCCCCCACCCUCA [hsa-miR-6766-3p]	1.17

* * *

As shown below, each of these sequences has a reported percent viability value.
# Test system: MCF10A
# measurementDescription: percent viability (nuclei count relative to siNT); higher = more viable cells
# conditionNotes: 20 nM; 72 h
propertyName: percent viability

sequenceCode	propertyName	value
UCAAGGCCAGAGGUCCCACAGCA [hsa-miR-3922-5p]	percent viability	30.9%
UCUGGUCCUGGACAGGAGGC [hsa-miR-7152-3p]	percent viability	41.9%
CUGGGGGUGGGGGGCUGGGCGU [hsa-miR-6803-5p]	percent viability	86.6%
AAAGACAUAGUUGCAAGAUGGG [hsa-miR-3617-5p]	percent viability	188%
UUUCUUCUUAGACAUGGCAACG [hsa-miR-4659a-3p]	percent viability	51.4%
CCUCUCCUCCCUGUGCCCCAG [hsa-miR-6845-3p]	percent viability	60.1%
UCAGUGUCUGGAUUUCCUAG [hsa-miR-6733-3p]	percent viability	70.7%
UGAAGUACCAGCUACUCGAGAG [hsa-miR-5585-5p]	percent viability	36.7%
CAGGAUCCACAGAGCUAGUCCA [hsa-miR-4661-3p]	percent viability	31.4%
GGUGGCCCGGCCGUGCCUGAGG [hsa-miR-663b]	percent viability	124%
CAUGGGAGUUCGGGGUGGUUGC [hsa-miR-6871-5p]	percent viability	25.6%
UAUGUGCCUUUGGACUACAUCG [hsa-miR-455-5p]	percent viability	44.7%
AGUGGGAGGCCAGGGCACGGCA [hsa-miR-1233-1-5p]	percent viability	26.5%
GACACUAGGCAUGUGAGUGAUU [hsa-miR-4704-5p]	percent viability	65%
GGGGAACUGUAGAUGAAAAGGC [hsa-miR-8059]	percent viability	101%
UGUGACUGGUUGACCAGAGGGG [hsa-miR-134]	percent viability	28%
AGCAGGGCUGGGGAUUGCA [hsa-miR-6132]	percent viability	20.5%
UUGGCUGGUCUCUGCUCCGCAG [hsa-miR-6842-3p]	percent viability	24.9%
ACACACUUACCCGUAGAGAUUCUA [hsa-miR-216b-3p]	percent viability	59%
AGUUUUGCAUAGUUGCACUACA [hsa-miR-19a-5p]	percent viability	124%
GUGGCUCUGUAGUAAGAUGGA [hsa-miR-8057]	percent viability	44.7%
UGGAGACGCGGCCCUGUUGGAGU [hsa-miR-139-3p]	percent viability	68%
UCGUACCGUGAGUAAUAAUGCG [hsa-miR-126-3p]	percent viability	30.2%
